# Target system: rat mGlu3 (Rattus norvegicus (Rat))
# Sequence (P31422 23-879): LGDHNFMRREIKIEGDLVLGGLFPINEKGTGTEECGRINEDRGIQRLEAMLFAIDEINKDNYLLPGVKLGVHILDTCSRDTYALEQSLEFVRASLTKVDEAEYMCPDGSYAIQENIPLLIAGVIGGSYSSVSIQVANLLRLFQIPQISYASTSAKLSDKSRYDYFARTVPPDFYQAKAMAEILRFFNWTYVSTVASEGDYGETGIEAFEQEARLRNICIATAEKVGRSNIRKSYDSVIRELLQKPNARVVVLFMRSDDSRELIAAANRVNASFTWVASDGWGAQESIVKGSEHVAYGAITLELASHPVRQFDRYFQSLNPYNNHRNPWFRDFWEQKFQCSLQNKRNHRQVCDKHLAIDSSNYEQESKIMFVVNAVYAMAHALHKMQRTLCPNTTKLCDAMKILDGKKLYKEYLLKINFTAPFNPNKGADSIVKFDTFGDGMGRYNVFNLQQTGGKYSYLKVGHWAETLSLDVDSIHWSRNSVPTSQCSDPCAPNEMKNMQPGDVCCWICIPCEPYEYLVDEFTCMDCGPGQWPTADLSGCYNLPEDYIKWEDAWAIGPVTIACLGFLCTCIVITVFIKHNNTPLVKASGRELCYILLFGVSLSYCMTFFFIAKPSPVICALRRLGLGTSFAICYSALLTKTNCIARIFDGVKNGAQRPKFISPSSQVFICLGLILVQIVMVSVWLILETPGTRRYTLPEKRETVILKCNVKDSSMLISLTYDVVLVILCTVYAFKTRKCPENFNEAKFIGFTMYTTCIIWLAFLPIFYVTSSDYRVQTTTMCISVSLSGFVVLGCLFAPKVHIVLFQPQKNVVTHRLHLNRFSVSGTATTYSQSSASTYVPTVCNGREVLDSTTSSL
# Experiment description: mGlu3 Ca2+ flux assay
# Format: cell-based
# Experimental setup: amplitude of response at 30 μM test compound as % of maximal response to glutamate; read-out: rat mGlu3 Glu max (%)
Simple rule here: remaining activity at 30 µM less than 2% is satisfied, otherwise not satisfied.

// below: answered molecules
{"Smiles notation": "COc1ccc(N(C)Cc2cc3n(n2)CCN(c2cccc(OC)c2)C3=O)cc1", "Answer label": "satisfied"}
{"Smiles notation": "Cc1ccc(NCc2cc3n(n2)CCN(c2ccc(F)cc2)C3=O)c(F)c1", "Answer label": "satisfied"}
{"Smiles notation": "C[C@@H]1CN(c2ccc(F)cc2)C(=O)c2cc(CNc3cccc(F)c3F)nn21", "Answer label": "not satisfied"}
{"Smiles notation": "COc1ccc(N(C)Cc2cc3n(n2)CCN(c2c(F)cc(Cl)cc2F)C3=O)cc1", "Answer label": "satisfied"}

Consider the record given below.
-- ask Here's an entry: "O=C1c2cc(CNc3ccc(OC(F)F)cc3F)nn2CCN1c1ccccc1F" . Is its remaining activity at 30 µM below 2%?
-- reply not satisfied

====

Consider the following compounds and their measured Fold selectivity (mGlu3 vs. mGlu5) readings.
# Target system: rat mGlu5 (Rattus norvegicus (Rat))
# Sequence (P31424 21-1203): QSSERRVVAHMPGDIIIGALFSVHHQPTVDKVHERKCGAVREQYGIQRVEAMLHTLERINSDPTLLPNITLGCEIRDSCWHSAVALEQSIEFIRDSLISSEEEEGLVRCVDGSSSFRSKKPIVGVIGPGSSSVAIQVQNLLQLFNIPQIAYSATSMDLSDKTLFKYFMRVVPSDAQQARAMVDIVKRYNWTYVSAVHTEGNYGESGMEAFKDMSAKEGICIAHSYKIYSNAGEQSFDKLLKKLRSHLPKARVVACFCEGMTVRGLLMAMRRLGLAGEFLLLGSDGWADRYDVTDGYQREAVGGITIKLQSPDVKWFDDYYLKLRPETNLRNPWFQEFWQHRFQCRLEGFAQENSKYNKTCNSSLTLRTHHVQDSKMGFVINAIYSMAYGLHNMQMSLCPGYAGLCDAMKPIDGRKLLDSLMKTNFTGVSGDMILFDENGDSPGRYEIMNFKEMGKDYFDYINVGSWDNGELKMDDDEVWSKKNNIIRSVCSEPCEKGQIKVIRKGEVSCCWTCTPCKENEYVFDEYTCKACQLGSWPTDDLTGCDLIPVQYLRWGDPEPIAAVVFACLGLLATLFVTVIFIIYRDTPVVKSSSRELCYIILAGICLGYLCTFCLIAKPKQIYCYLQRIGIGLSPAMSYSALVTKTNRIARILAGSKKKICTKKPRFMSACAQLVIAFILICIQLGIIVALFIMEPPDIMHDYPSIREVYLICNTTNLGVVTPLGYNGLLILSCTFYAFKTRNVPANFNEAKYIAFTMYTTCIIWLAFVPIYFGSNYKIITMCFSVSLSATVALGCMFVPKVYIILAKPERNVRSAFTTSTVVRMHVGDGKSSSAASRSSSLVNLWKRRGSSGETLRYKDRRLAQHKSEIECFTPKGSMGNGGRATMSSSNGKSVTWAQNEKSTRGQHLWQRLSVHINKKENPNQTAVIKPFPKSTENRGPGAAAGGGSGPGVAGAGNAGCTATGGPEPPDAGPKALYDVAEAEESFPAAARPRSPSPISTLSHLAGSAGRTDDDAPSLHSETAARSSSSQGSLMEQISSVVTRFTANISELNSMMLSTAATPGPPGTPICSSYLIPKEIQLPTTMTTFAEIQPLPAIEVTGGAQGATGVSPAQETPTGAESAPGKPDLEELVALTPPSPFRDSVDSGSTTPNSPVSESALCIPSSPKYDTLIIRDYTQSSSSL
# Experiment description: mGlu5 Ca2+ flux assay
# Type: cell-based
# Experimental setup: ratio of rat mGlu5 EC50 or IC50 to rat mGlu3 IC50

As a guide, the following entries are already answered.
{"Compound": "CC(Nc1ccccc1)c1cc2n(n1)CCN(c1ccc(F)cc1)C2=O (stereo not drawn)", "Fold selectivity (mGlu3 vs. mGlu5)": ">10"}
{"Compound": "O=C1c2cc(CNc3cccc(Cl)c3)nn2CCN1c1ccc(F)cc1", "Fold selectivity (mGlu3 vs. mGlu5)": 2.74}
{"Compound": "O=C1c2cc(CNc3ccc(OC(F)F)cc3F)nn2CCN1c1cccc(F)n1", "Fold selectivity (mGlu3 vs. mGlu5)": ">36"}
{"Compound": "C[C@@H]1CN(c2ccc(F)cc2)C(=O)c2cc(CNc3cccc(F)c3)nn21", "Fold selectivity (mGlu3 vs. mGlu5)": ">8.2"}
{"Compound": "CN(Cc1cc2n(n1)CCN(c1ccc(F)cc1)C2=O)c1ccccc1", "Fold selectivity (mGlu3 vs. mGlu5)": ">24"}

-- ask Form field: reported Fold selectivity (mGlu3 vs. mGlu5) of "Cc1ccnc(NCc2cc3n(n2)CCN(c2ccc(F)cc2)C3=O)c1"
-- reply >8.0

-- ask And what about the compound "C[C@H]1CN(c2ccc(F)cc2)C(=O)c2cc(CNc3cc(F)cc(F)c3)nn21" ?
-- reply >4.2

-- ask What about this compound? "COc1ccc(N(C)Cc2cc3n(n2)CCN(c2cc(Cl)cc(OC)c2)C3=O)cc1"
-- reply >17

-- ask Next compound: "C[C@@H]1CN(c2ccc(F)cc2)C(=O)c2cc(CNc3ccc(F)cc3)nn21"
-- reply >25

-- ask Thanks! And "COc1ccc(N(C)Cc2cc3n(n2)CCN(c2cccc(C)c2)C3=O)cc1" ?
-- reply >37

-- ask Same question, "COc1ccc(N(C)Cc2cc3n(n2)CCN(c2cccc(OC)c2)C3=O)cc1" this time
-- reply >26
